details: buffer; pH 7.4; 200.0 µM
readout_type: solubility kinetic (µg/mL)
Write the answer as a number in µg/mL, unit excluded.

{"columns": ["molecule", "unit_abbrev", "experimental_value"],
 "data": [
  ["Cc1cccc(N2CC(C(=O)OCC(=O)Nc3sccc3C(N)=O)CC2=O)c1C (stereo unspecified)", "µg/mL", 6.5]
]}

Consider the molecule shown here: `COc1ccc(/C=C(\C#N)C(=O)Nc2ccccn2)cc1` What is its recorded solubility kinetic?
3.5

If you can, please state the reported solubility kinetic value of `COc1ccccc1CNC(=O)COC(=O)c1nccnc1N` .
39.7

What does the record list as solubility kinetic for `O=C(CSC(=S)N1CCCCC1)c1c(F)cccc1F` ?
4

Entry `Cc1c(Cl)cccc1NC(=O)c1cc(-c2ccco2)on1` : reported solubility kinetic = ?
0.8

I'd like to know its solubility kinetic. The molecule in question is `Cc1occc1C(=O)Nc1sccc1C(N)=O`
10.7

Quick check: solubility kinetic of `COc1ccc(NC(=O)c2scc(S(=O)(=O)C(C)C)c2N)cc1` ?
45.5

Quick check: solubility kinetic of `CCN(Cc1ccccc1)C(=O)c1ccc(SC)cc1OC` ?
45.8

So what does the record say about solubility kinetic for `Nc1nc(-c2c(Cl)cccc2Cl)no1` ?
32.7

---

settings: buffer; pH 7.4; 200.0 µM
readout_type: solubility kinetic (µg/mL)
Output spec: scalar in µg/mL, unitless text.

{"columns": ["cpd_smiles", "solubility kinetic (µg/mL)"],
 "data": [
  ["O=[N+]([O-])c1ccc2nc(-c3ccncc3)[nH]c2c1", 8],
  ["O=C(c1cccs1)N1CC=C(c2ccccc2)CC1", 11.5],
  ["Cc1ccc2[nH]c(C(=O)N3CCCCC3)cc2c1", 7.6]
]}

Look up solubility kinetic: `COc1ccc(OCCCCn2c(CO)nc3ccccc32)cc1`
45.4

---

Measured solubility kinetic by item
conditions: buffer; pH 7.4; 200.0 µM

{"columns": ["cpd_smiles", "solubility kinetic"],
 "data": [
  ["CSc1c(C#N)c(N)nc2sc(C(=O)c3ccccc3)c(N)c12", "3.1 µg/mL"],
  ["Cc1ccsc1C(=O)NCC(C)(C)N1CCOCC1", "> 42.4 µg/mL"],
  ["Cc1nc2ccccc2n1Cc1ccccc1Br", "26 µg/mL"]
]}

Read the next record carefully.
Query (molecule): `NS(=O)(=O)c1cccc(NC(=O)c2ccc(S(=O)(=O)N3CCCCCC3)cc2)c1` ; field requested: solubility kinetic
7.1 µg/mL

---

# key: entry, value: log10(solubility kinetic)
conditions: buffer; pH 7.4; 200.0 µM
Hey, these are logged values: log10 of solubility kinetic, µg/mL being the unit before logging.

Some entries whose results are on file:
{"columns": ["cpd_smiles", "log10(solubility kinetic)"],
 "data": [
  ["Cn1c(N)c(C(=O)Nc2cccc(Cl)c2)c(=O)n(C)c1=O", 0.40],
  ["O=C(Nc1ccc(Br)cn1)c1ccc(Cl)s1", 0.15],
  ["COc1cc(SC)ccc1C(=O)OCC(=O)N1CC(=O)Nc2ccccc21", 1.25],
  ["O=C(O)CCCCCNC(=O)/C(=C\\c1ccco1)NC(=O)c1ccco1", 1.65]
]}

I have this molecule here, `O=C(COC(=O)CCC(=O)c1cccs1)Nc1ccc(F)c(F)c1F` , and I need its recorded log10(solubility kinetic).
0.91

---

The following molecules are listed with their measured solubility kinetic values.
conditions: buffer; pH 7.4; 200.0 µM
API: value field is a number in µg/mL; no unit string.

{"columns": ["molecule", "unit_abbrev", "solubility kinetic"],
 "data": [
  ["CCCCn1c(=O)[nH]c2c(oc3ccccc32)c1=O", "µg/mL", 1.7],
  ["CC(=O)c1c(C)[nH]c(C(=O)NCCc2c[nH]c3ccccc23)c1C", "µg/mL", 1.4],
  ["O=C(c1ccccc1)c1c[nH]c2ccccc12", "µg/mL", 1.9]
]}

Recorded solubility kinetic of `Cc1cc(C(=O)Nc2ccncc2)ccc1[N+](=O)[O-]` , please.
18.4

---

settings: buffer; pH 7.4; 200.0 µM
readout_type: solubility kinetic (µg/mL)
Field: numeric (µg/mL). Do not append units.

Worked examples, 3 compounds total:
{"columns": ["compound", "solubility kinetic / µg/mL"],
 "data": [
  ["Cc1cccc(CC2S/C(=N/c3cccc(C)n3)NC2=O)c1 (configuration not stated)", 0.7],
  ["CN1C(=O)Cc2cc(S(=O)(=O)NCCc3ccccc3)ccc21", 39.1],
  ["COc1cc(C)c(CN2CCSCC2)cc1C", 12.1]
]}

Given the compound `COc1ccc(C(=O)NC2CCN(C(=O)Nc3ccc(F)cc3)CC2)cc1` , what is its reported solubility kinetic?
0.9

Fill blank: measured solubility kinetic of the compound `Cc1c(N2CCCC2)cc2c(c1N)C(C)(C)CC2(C)C` is ____.
19.2

What measured solubility kinetic goes with `Cc1ccc(OCC(=O)NCCCNC(=O)c2cnccn2)cc1C` ?
49.9

---

conditions: buffer; pH 7.4; 200.0 µM
readout_type: solubility kinetic (µg/mL)
Express the result in µg/mL but write the number alone.

Form field: reported solubility kinetic of `COc1ccc(Nc2ncnc3ccc(Br)cc23)c(OC)c1`
7.3

---

details: buffer; pH 7.4; 200.0 µM
readout_type: solubility kinetic (µg/mL)
# output: bare number, implied unit µg/mL

Below: 2 compounds and their reported solubility kinetic.
{"columns": ["compound", "unit_abbrev", "solubility kinetic"],
 "data": [
  ["Cl.c1ccc(CN2CCNCC2)nc1", "µg/mL", 30.1],
  ["CC1Cc2ccccc2N1C(=O)c1ccc(F)c(S(=O)(=O)N2CCOCC2)c1 (stereo unspecified)", "µg/mL", 50.3]
]}

May I ask what solubility kinetic has been recorded for `O=C(O)c1cc(N2CCOCC2)nc2ccccc12` ?
37.9

---

Listed compounds paired with reported solubility kinetic
settings: buffer; pH 7.4; 200.0 µM
# number only, unit µg/mL dropped from output

Query (compound): `CN(C)C(=S)NC(=O)C12CC3CC(C)(CC(C)(C3)C1)C2` ; field requested: solubility kinetic
27.4

# get_value(readout='solubility kinetic', item= Cc1ccc(N2CC(C(=O)Nc3cccnc3)CC2=O)cc1C (configuration not stated) )
31.3

Give its solubility kinetic value. Item: `CCOC(=O)c1c(/N=C/c2ccc(OC)cc2O)sc2c1CCN(C)C2`
37

What does the record list as solubility kinetic for CC1(CCl)CN1S(=O)(=O)c1ccccc1 (configuration not stated) ?
30.8

Given `Cn1cccc1/C=C(\C#N)C(N)=S` , state its recorded solubility kinetic.
28.1

---

details: buffer; pH 7.4; 200.0 µM
Assign met whenever solubility kinetic does not fall below 30 µg/mL; assign not met whenever it does.

{"columns": ["compound", "answer_label"],
 "data": [
  ["CC(C1CC1)N(C(=O)c1ccccc1[N+](=O)[O-])c1ccccc1 (centres undefined)", "not met"],
  ["CC1SCC(=O)N(CC(=O)NCCc2ccccc2)C1=O (centres undefined)", "met"],
  ["COc1cc(C2C(C#N)=C(N)Oc3cc(C)oc(=O)c32)cc(OC)c1OC (centres undefined)", "met"],
  ["CCN1CCN(CC(=O)N2c3ccccc3Sc3ccccc32)CC1", "met"],
  ["CCCOc1cccc(C(=O)NCCNC(=O)c2cnccn2)c1", "met"]
]}

Quick check, solubility kinetic >= 30 µg/mL? `O=C(Cn1cnc([N+](=O)[O-])n1)NC1CC1`
met

Evaluate COc1ccc(N2C(=O)NC3CC2(C)Oc2ccccc23)cc1 (centres undefined) : solubility kinetic at minimum 30 µg/mL?
met

Given `Cc1ccc(CNc2ncnc3cc(Cl)ccc23)cc1` , state whether its solubility kinetic is at least 30 µg/mL.
not met

Answer whether solubility kinetic of `COc1ccc(C(=O)N2CCC(C(=O)c3c(C)cc(C)cc3C)CC2)cc1` is greater than or equal to 30 µg/mL.
met

Tell me whether solubility kinetic is at least 30 µg/mL here: CC(NC(=O)COC(=O)c1ccc2ccccc2n1)c1ccccc1 (centres undefined)
not met

---

Quick reference: solubility kinetic of the listed items.
settings: buffer; pH 7.4; 200.0 µM
Respond with the bare value in µg/mL.

Some compounds with known solubility kinetic results, for comparison:
{"columns": ["compound", "experimental_value"],
 "data": [
  ["O=C(c1cccc(NS(=O)(=O)c2cccc(F)c2)c1)N1CCCC1", 51],
  ["Cc1cc(C)cc(CC2CC(=O)N(c3cc(C)ccc3C)C2=O)c1 (centres undefined)", 17.5],
  ["O=C(/C=C/c1ccco1)OCC(=O)c1cccc([N+](=O)[O-])c1", 3.2]
]}

Now examine the next entry.
Quick one: solubility kinetic for CC(C(=O)NC(c1ccccc1)c1ccccc1)N1CCOCC1 (centres undefined) ?
44.9

---

conditions: buffer; pH 7.4; 200.0 µM
Some molecules, each annotated with its measured solubility kinetic.
Write the number in µg/mL without appending the unit.

I would be grateful if you could share the reported solubility kinetic for `COc1ccc(-c2nc3ncccc3o2)cc1NC(=O)c1cccs1` .
0.3

Requested read-out: solubility kinetic. Entry: `Cc1cc2ccccn2c1C(=O)c1ccccc1F`
12.5

Look at this molecule and give its reported solubility kinetic. `CC1CCN(C(=O)CN(Cc2ccc(Cl)cc2)S(C)(=O)=O)CC1`
52.8

// returns reported solubility kinetic for input `Nc1ccc(-c2nc3ccc(N)cc3s2)cc1`
17.7

Param item = CC(C)N1CCN(Cc2ccncc2)CC1CCO (stereo not given) ; retrieve measured solubility kinetic.
24.3

For `Cc1ccccc1NC(=S)NC(=O)C1CCCCC1` , what is its reported solubility kinetic?
1

Endpoint output: solubility kinetic of `CCc1sc(C(=O)Nc2ccc3c(c2)OCO3)cc1C` . Value?
4.9

Which solubility kinetic is reported for this molecule? `COC(=O)c1cc(NC(=O)Cc2cccs2)cc(C(=O)OC)c1`
19.5

Return reported solubility kinetic; argument: `O=C(COc1ccc(S(=O)(=O)N2CCCC2)cc1)N1CCCCC1`
47.6

Looking for the measured solubility kinetic of `COc1ccc(OC)c(CC(=O)Nc2ccc3c(c2)CCC3)c1` , can you help?
4.1
